Listed here: items and their measured MIC.
- Test system: Haemophilus influenzae
- EXPERIMENT_SUMMARY: Antibacterial activity against Haemophilus influenzae isolate 283 by agar dilution method
- Assay type: functional
READOUT_TYPE: MIC (µg/mL)

• Cc1cn(C[C@H]2CN(c3ccc(N4CCN(C=O)CC4)c(F)c3)C(=O)O2)nn1 = 64
• Cc1cn(C[C@H]2CN(c3ccc(N4CCNCC4)c(F)c3)C(=O)O2)nn1.O=C(O)C(F)(F)F = 32
• CCOC(=O)N1CCN(c2ccc(N3C[C@H](Cn4cc(C)nn4)OC3=O)cc2F)CC1 = 64

###

- Test system: Haemophilus influenzae
- EXPERIMENT_SUMMARY: Antibacterial activity against Haemophilus influenzae isolate 283 by agar dilution method
- Assay type: functional
READOUT_TYPE: MIC

- CN[C@H](CC(C)C)C(=O)N[C@H]1C(=O)N[C@@H](CC(N)=O)C(=O)N[C@H]2C(=O)N[C@H]3C(=O)N[C@H](C(=O)N[C@H](C(=O)O)c4cc(O)cc(O)c4-c4cc3ccc4O)[C@H](O)c3ccc(c(Cl)c3)Oc3cc2cc(c3O[C@@H]2O[C@H](CO)[C@@H](O)[C@H](O)[C@H]2O[C@H]2C[C@](C)(N)[C@H](O)[C@H](C)O2)Oc2ccc(cc2Cl)[C@H]1O: > 16 µg/mL
- Cc1cn(C[C@H]2CN(c3ccc(N4CCN(C(=O)c5ccccc5)CC4)c(F)c3)C(=O)O2)nn1: > 64 µg/mL
- CCSC(=O)N1CCN(c2ccc(N3C[C@H](Cn4cc(C)nn4)OC3=O)cc2F)CC1: > 64 µg/mL
- CC(=O)NC[C@H]1CN(c2ccc(N3CCOCC3)c(F)c2)C(=O)O1: 16 µg/mL
- Cc1cn(C[C@H]2CN(c3ccc(N4CCOCC4)c(F)c3)C(=O)O2)nn1: 64 µg/mL
